Value source: patent US10299478B2

Test system: greenhouse red spider mite (Tetranychus urticae)
Experiment: Tetranychus urticae spray test, OP-resistant
Type: in vivo
Conditions: application rate 100 g/ha; bean leaf discs sprayed; after 6 days
Experimental: Tetranychus urticae-Spray Test, OP-Resistant • Solvent: 78.0 parts by weight of acetone • 1.5 parts by weight of dimethylformamide • Emulsifier: alkylaryl polyglycol ether To produce an appropriate active ingredient formulation, 1 part by weight of active ingredient is dissolved using the specified parts by weight of solvent and made up with water containing an emulsifier concentration of 1000 ppm until the desired concentration is attained. […] After 6 days, efficacy in % is determined. […]
// reported efficacy (spider mites killed) for each item listed
Respond with the bare value in %.

Record excerpt, results attached:
>>> result_value("Cc1ncc(-c2cn(-c3c(C(F)(F)F)c(C(F)(F)C(F)(F)F)nn3C)nn2)cc1C(=O)NC1CC1")
100
>>> result_value("Cn1nc(C(F)(F)C(F)(F)F)c(C(F)(F)F)c1-n1cc(-c2cnc(Cl)c(C(=O)NC3CC3)c2)nn1")
100
>>> result_value("Cn1nc(C(F)(F)C(F)(F)F)c(C(F)(F)F)c1-n1cc(-c2cnc(Cl)c(C(=O)NC3(C#N)CC3)c2)nn1")
90

# input for lookup
## Task Which efficacy (spider mites killed) is listed for Cc1ncc(-c2cn(-c3c(C(F)(F)F)c(C(F)(F)C(F)(F)F)nn3C)nn2)cc1C(=O)NC1(C#N)CC1 ?
## Result 100

====

Tested on: L1 larvae of the Australian sheep blowfly (Lucilia cuprina)
Assay: Lucilia cuprina test
Type: in vivo
Conditions: application rate 100 ppm; minced horsemeat; after 2 days
readout-name: efficacy (kill of larvae) (%)
Respond with the bare value in %.

Record excerpt, results attached:
>>> result_value("Cc1ncc(-c2cn(-c3c(C(F)(F)F)c(C(F)(F)C(F)(F)F)nn3C)nn2)cc1C(=O)NC1(C#N)CC1")
95
>>> result_value("COc1ncc(-c2cn(-c3c(C(F)(F)F)c(C(F)(F)C(F)(F)F)nn3C)nn2)cc1C(=O)NC1CC1")
100
>>> result_value("Cn1nc(C(F)(F)C(F)(F)F)c(C(F)(F)F)c1-n1cc(-c2cnc(Cl)c(C(=O)NC3CC3)c2)nn1")
100
>>> result_value("COc1ncc(-c2cn(-c3c(C(F)(F)F)c(C(F)(F)C(F)(F)F)nn3C)nn2)cc1C(=O)NC1(C#N)CC1")
100

## Task Which efficacy (kill of larvae) is listed for Cc1ncc(-c2cn(-c3c(C(F)(F)F)c(C(F)(F)C(F)(F)F)nn3C)nn2)cc1C(=O)NC1CC1 ?
## Result 100

====

Test system: adult houseflies (Musca domestica)
Test: Musca domestica test
Assay type: in vivo
Conditions: application rate 100 ppm; sponge with sugar solution; after 2 days
Description: • Solvent: dimethyl sulphoxide To produce an appropriate active ingredient formulation, 10 mg of active ingredient are mixed with 0.5 ml of dimethyl sulphoxide, and the concentrate is diluted with water to the desired concentration. Vessels containing a sponge treated with sugar solution and the active ingredient formulation of the desired concentration are populated with 10 adult houseflies (Musca domestica). After 2 days, the kill in % is determined. […]
readout-name: efficacy (kill of flies)
Answer shape: numeric part, then the unit.

>>> result_value("Cc1ncc(-c2cn(-c3c(C(F)(F)F)c(C(F)(F)C(F)(F)F)nn3C)nn2)cc1C(=O)NC1(C#N)CC1 [Ia-3]")
"80%"
>>> result_value("COc1ncc(-c2cn(-c3c(C(F)(F)F)c(C(F)(F)C(F)(F)F)nn3C)nn2)cc1C(=O)NC1CC1 [Ia-6]")
"100%"
>>> result_value("Cc1ncc(-c2cn(-c3c(C(F)(F)F)c(C(F)(F)C(F)(F)F)nn3C)nn2)cc1C(=O)NC1CC1 [Ia-4]")
"100%"
>>> result_value("Cn1nc(C(F)(F)C(F)(F)F)c(C(F)(F)F)c1-n1cc(-c2cnc(Cl)c(C(=O)NC3CC3)c2)nn1 [Ia-2]")
"100%"

## Task Which efficacy (kill of flies) is listed for COc1ncc(-c2cn(-c3c(C(F)(F)F)c(C(F)(F)C(F)(F)F)nn3C)nn2)cc1C(=O)NC1(C#N)CC1 [Ia-5] ?
## Result 100%
